test system: PC3 cells; type: cell-based, human
reported-endpoint: IC50

Inquiry: // query IC50 value for entry CC[C@H](C)[C@H](NC(=O)[C@@H](N)Cc1c[nH]c2ccccc12)C(=O)N[C@@H](C)C(=O)N[C@@H](CCC(N)=O)C(=O)N[C@@H](CCC(N)=O)C(=O)N[C@@H](CC(C)C)C(=O)N[C@@H](CCCNC(=N)N)C(=O)N[C@@]1(C)CCCC=CCCC[C@@](C)(C(=O)N[C@@H](Cc2ccccc2)C(=O)N[C@@H](CC(N)=O)C(N)=O)NC(=O)[C@H](CC(=O)O)NC(=O)CNC(=O)[C@H]([C@@H](C)CC)NC1=O (single isomer, unassigned) [E151Q]
Reply text: 9.5 µM
